The measured values listed here are drawn from paper PMC3961306.

Quick list: pIC50 per entry.
System: forty-four human cancer cell lines
Assay: Cell proliferation assay (ATPlite, 72 hours) in the 44 cell line Oncolines panel
Type: cell-based
Settings: Homo sapiens; cell line MG-63; read-out: cell panel IC50, MG-63
A value of pIC50 is the negative decimal logarithm of a concentration given in moles per litre.

INSERT INTO measurements (smiles_data, assayed_target, data_value) VALUES
  ('CO[C@H]1C[C@@H]2CC[C@@H](C)[C@@](O)(O2)C(=O)C(=O)N2CCCC[C@H]2C(=O)O[C@H]([C@H](C)C[C@@H]2CC[C@@H](OC(=O)C(C)(CO)CO)[C@H](OC)C2)CC(=O)[C@H](C)/C=C(\C)[C@@H](O)[C@@H](OC)C(=O)[C@H](C)C[C@H](C)/C=C/C=C/C=C/1C', 'forty-four human cancer cell lines', 5.65);

Now consider a different molecule.
Readout pIC50 for `CNC(=O)c1cc(Oc2ccc(NC(=O)Nc3ccc(Cl)c(C(F)(F)F)c3)c(F)c2)ccn1` , test system forty-four human cancer cell lines, was 5.44

----------
Biological target: panel of more than 300 wild-type and mutant kinases (313 kinase panel) (Homo sapiens, UniProt Q14680)
Experiment: Kinase profiling in a biochemical assay panel (mobility shift assays and ELISA), %-inhibition at 1 μM; selectivity entropy
Settings: kinase MELK; compound at 1 μM
T means recorded %-inhibition of MELK is 20% or above; F means it is below 20%.

INSERT INTO measurements (molecule, label_class) VALUES
  ('N#CC[C@H](C1CCCC1)n1cc(-c2ncnc3[nH]ccc23)cn1', 'T');

Is %-inhibition of MELK at least 20%? Consider `O=S(=O)(c1cccc2cnccc12)N1CCCNCC1`
T

State whether the measured %-inhibition of MELK reaches 20%, counting equality as reaching it, for COc1cc2nccc(Oc3ccc(NC(=O)C4(C(=O)Nc5ccc(F)cc5)CC4)cc3)c2cc1OC [cabozantinib]
T

Determine whether measured %-inhibition of MELK meets or exceeds 20% for `CCCS(=O)(=O)Nc1ccc(F)c(C(=O)c2c[nH]c3ncc(-c4ccc(Cl)cc4)cc23)c1F`
F

Evaluate `COc1cc2c(Nc3ccc(Br)cc3F)ncnc2cc1OCC1CCN(C)CC1` : %-inhibition of MELK at minimum 20%?
F

Say whether `C[C@@H](Oc1cc(-c2cnn(C3CCNCC3)c2)cnc1N)c1c(Cl)ccc(F)c1Cl` shows %-inhibition of MELK of 20% or more.
F

Evaluate `CO[C@H]1C[C@@H]2CC[C@@H](C)[C@@](O)(O2)C(=O)C(=O)N2CCCC[C@H]2C(=O)O[C@H]([C@H](C)C[C@@H]2CC[C@@H](OCCO)[C@H](OC)C2)CC(=O)[C@H](C)/C=C(\C)[C@@H](O)[C@@H](OC)C(=O)[C@H](C)C[C@H](C)/C=C/C=C/C=C/1C` : %-inhibition of MELK at minimum 20%?
F

----------
Measured %-inhibition of DYRK3 accompanies every entry in the list below.
Target: panel of more than 300 wild-type and mutant kinases (313 kinase panel) (Homo sapiens, UniProt O43781)
Sequence (O43781 whole entry, change not shown): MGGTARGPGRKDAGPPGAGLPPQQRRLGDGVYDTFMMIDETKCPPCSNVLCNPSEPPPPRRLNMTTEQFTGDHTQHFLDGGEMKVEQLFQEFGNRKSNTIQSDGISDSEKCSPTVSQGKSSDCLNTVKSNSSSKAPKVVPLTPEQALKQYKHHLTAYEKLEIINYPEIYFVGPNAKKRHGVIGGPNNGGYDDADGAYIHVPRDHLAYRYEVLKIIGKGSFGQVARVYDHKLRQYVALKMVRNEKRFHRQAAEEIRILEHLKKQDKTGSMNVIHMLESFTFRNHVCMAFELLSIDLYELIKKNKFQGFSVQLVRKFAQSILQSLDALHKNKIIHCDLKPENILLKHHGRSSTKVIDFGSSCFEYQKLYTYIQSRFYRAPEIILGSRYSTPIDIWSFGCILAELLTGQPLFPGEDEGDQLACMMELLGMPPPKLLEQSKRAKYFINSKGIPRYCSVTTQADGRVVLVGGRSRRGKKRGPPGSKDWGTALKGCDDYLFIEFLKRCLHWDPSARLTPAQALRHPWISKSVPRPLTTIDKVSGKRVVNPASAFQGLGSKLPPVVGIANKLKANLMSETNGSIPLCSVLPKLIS
Assay: Kinase profiling in a biochemical assay panel (mobility shift assays and ELISA), %-inhibition at 1 μM; selectivity entropy
Conditions: kinase DYRK3; compound at 1 μM
Unit % implied. Number only.

INSERT INTO assay_data (molecule, property_label, data_value) VALUES
  ('O=S(=O)(c1cccc2cnccc12)N1CCCNCC1 [fasudil]', '%-inhibition of DYRK3', 26);

Data point: Cc1cn(-c2cc(NC(=O)c3ccc(C)c(Nc4nccc(-c5cccnc5)n4)c3)cc(C(F)(F)F)c2)cn1 [nilotinib] ; %-inhibition of DYRK3 = -1.09

What the record says about COc1cc(Nc2c(C#N)cnc3cc(OCCCN4CCN(C)CC4)c(OC)cc23)c(Cl)cc1Cl [bosutinib] : %-inhibition of DYRK3 is 12

# molecule C[C@@H](Oc1cc(-c2cnn(C3CCNCC3)c2)cnc1N)c1c(Cl)ccc(F)c1Cl [crizotinib] ; its %-inhibition of DYRK3 = 14

For CCCS(=O)(=O)Nc1ccc(F)c(C(=O)c2c[nH]c3ncc(-c4ccc(Cl)cc4)cc23)c1F [vemurafenib] the molecule record lists %-inhibition of DYRK3 as 5

// %-inhibition of DYRK3 lookup, molecule = Cc1ccc(Nc2nccc(N(C)c3ccc4c(C)n(C)nc4c3)n2)cc1S(N)(=O)=O [pazopanib] , result: -4.54

Looking up CN(C)C/C=C/C(=O)Nc1cc2c(Nc3ccc(F)c(Cl)c3)ncnc2cc1O[C@H]1CCOC1 [afatinib] , I see its %-inhibition of DYRK3 listed as 29

The molecule listed as CNC(=O)c1cc(Oc2ccc(NC(=O)Nc3ccc(Cl)c(C(F)(F)F)c3)c(F)c2)ccn1 [regorafenib] has a reported %-inhibition of DYRK3 of 15

----------
Biological target: panel of more than 300 wild-type and mutant kinases (313 kinase panel) (Homo sapiens)
Assay: Kinase profiling in a biochemical assay panel (mobility shift assays and ELISA), %-inhibition at 1 μM; selectivity entropy
Conditions: kinase MARK2; compound at 1 μM
Property label: %-inhibition of MARK2 (%)
Response body: numeric value in %, unit text excluded.

Consider the following illustrative entries.
INSERT INTO results (molecule, data_value) VALUES
  ('C[C@@H](Oc1cc(-c2cnn(C3CCNCC3)c2)cnc1N)c1c(Cl)ccc(F)c1Cl [crizotinib]', 26),
  ('CNC(=O)c1cc(Oc2ccc(NC(=O)Nc3ccc(Cl)c(C(F)(F)F)c3)c(F)c2)ccn1 [regorafenib]', 2.17),
  ('COc1cc2nccc(Oc3ccc(NC(=O)C4(C(=O)Nc5ccc(F)cc5)CC4)cc3)c2cc1OC [cabozantinib]', -4);

Lab entry: panel of more than 300 wild-type and mutant kinases (313 kinase panel) (Homo sapiens) assay, molecule CO[C@H]1C[C@@H]2CC[C@@H](C)[C@@](O)(O2)C(=O)C(=O)N2CCCC[C@H]2C(=O)O[C@H]([C@H](C)C[C@@H]2CC[C@@H](OC(=O)C(C)(CO)CO)[C@H](OC)C2)CC(=O)[C@H](C)/C=C(\C)[C@@H](O)[C@@H](OC)C(=O)[C@H](C)C[C@H](C)/C=C/C=C/C=C/1C [temsirolimus] , %-inhibition of MARK2 = -6

Fill in: panel of more than 300 wild-type and mutant kinases (313 kinase panel) (Homo sapiens) %-inhibition of MARK2 for CO[C@H]1C[C@@H]2CC[C@@H](C)[C@@](O)(O2)C(=O)C(=O)N2CCCC[C@H]2C(=O)O[C@H]([C@H](C)C[C@@H]2CC[C@@H](OCCO)[C@H](OC)C2)CC(=O)[C@H](C)/C=C(\C)[C@@H](O)[C@@H](OC)C(=O)[C@H](C)C[C@H](C)/C=C/C=C/C=C/1C [everolimus] = -6

----------
Target: panel of more than 300 wild-type and mutant kinases (313 kinase panel) (Homo sapiens, UniProt Q9P289)
Sequence (Q9P289 whole entry, change not shown): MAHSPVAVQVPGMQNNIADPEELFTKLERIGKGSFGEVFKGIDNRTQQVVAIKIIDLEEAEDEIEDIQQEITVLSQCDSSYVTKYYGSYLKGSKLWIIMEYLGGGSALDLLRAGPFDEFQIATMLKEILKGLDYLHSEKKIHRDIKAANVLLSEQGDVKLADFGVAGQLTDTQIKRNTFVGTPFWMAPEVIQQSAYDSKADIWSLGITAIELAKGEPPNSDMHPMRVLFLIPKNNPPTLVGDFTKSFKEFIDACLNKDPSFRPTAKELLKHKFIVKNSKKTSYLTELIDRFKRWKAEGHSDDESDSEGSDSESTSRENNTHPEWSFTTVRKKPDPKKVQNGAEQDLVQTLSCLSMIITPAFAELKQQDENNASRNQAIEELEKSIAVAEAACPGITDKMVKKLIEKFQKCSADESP
Assay: Kinase profiling in a biochemical assay panel (mobility shift assays and ELISA), %-inhibition at 1 μM; selectivity entropy
Settings: kinase MST4; 1 μM
# %-inhibition of MST4 per record follows
Give the value in % but do not write % after it.

These recorded examples may help you get a feel for the data.
INSERT INTO assay_data (compound, property_label, readout_units, data_value) VALUES
  ('CC(C)(C)c1nc(-c2cccc(NS(=O)(=O)c3c(F)cccc3F)c2F)c(-c2ccnc(N)n2)s1', '%-inhibition of MST4', '%', -7),
  ('C[C@@H](Oc1cc(-c2cnn(C3CCNCC3)c2)cnc1N)c1c(Cl)ccc(F)c1Cl', '%-inhibition of MST4', '%', 0.54),
  ('COc1cc2nccc(Oc3ccc(NC(=O)C4(C(=O)Nc5ccc(F)cc5)CC4)cc3)c2cc1OC [cabozantinib]', '%-inhibition of MST4', '%', -1.74),
  ('O=S(=O)(c1cccc2cnccc12)N1CCCNCC1', '%-inhibition of MST4', '%', 0.181),
  ('COc1cc2c(Nc3ccc(Br)cc3F)ncnc2cc1OCC1CCN(C)CC1', '%-inhibition of MST4', '%', -2.22);

// recorded %-inhibition of MST4 for `CC(=O)Nc1cccc(-n2c(=O)n(C3CC3)c(=O)c3c(Nc4ccc(I)cc4F)n(C)c(=O)c(C)c32)c1` : -2.23

What the record says about `Cc1cn(-c2cc(NC(=O)c3ccc(C)c(Nc4nccc(-c5cccnc5)n4)c3)cc(C(F)(F)F)c2)cn1` : %-inhibition of MST4 is 1.77

%-inhibition of MST4 reading for `CCN(CC)CCNC(=O)c1c(C)[nH]c(/C=C2\C(=O)Nc3ccc(F)cc32)c1C` : 34

----------
Biological target: panel of more than 300 wild-type and mutant kinases (313 kinase panel) (Homo sapiens, UniProt P42336)
Assay: Kinase profiling in a biochemical assay panel (mobility shift assays and ELISA), %-inhibition at 1 μM; selectivity entropy
Conditions: kinase PIK3CA/PIK3R1; 1 μM
// values below are reported %-inhibition of PIK3CA/PIK3R1
Return type: number; implicit unit %.

Here are 6 compounds together with their reported answers.
INSERT INTO measurements (compound, data_value) VALUES
  ('CCCS(=O)(=O)Nc1ccc(F)c(C(=O)c2c[nH]c3ncc(-c4ccc(Cl)cc4)cc23)c1F', 24),
  ('CO[C@H]1C[C@@H]2CC[C@@H](C)[C@@](O)(O2)C(=O)C(=O)N2CCCC[C@H]2C(=O)O[C@H]([C@H](C)C[C@@H]2CC[C@@H](OCCO)[C@H](OC)C2)CC(=O)[C@H](C)/C=C(\C)[C@@H](O)[C@@H](OC)C(=O)[C@H](C)C[C@H](C)/C=C/C=C/C=C/1C', 22),
  ('CNC(=O)c1cc(Oc2ccc(NC(=O)Nc3ccc(Cl)c(C(F)(F)F)c3)c(F)c2)ccn1', 41),
  ('Cc1cn(-c2cc(NC(=O)c3ccc(C)c(Nc4nccc(-c5cccnc5)n4)c3)cc(C(F)(F)F)c2)cn1', 16),
  ('CC(C)(C)c1nc(-c2cccc(NS(=O)(=O)c3c(F)cccc3F)c2F)c(-c2ccnc(N)n2)s1', 4.42),
  ('COc1cc(Nc2c(C#N)cnc3cc(OCCCN4CCN(C)CC4)c(OC)cc23)c(Cl)cc1Cl', 37);

Input `O=S(=O)(c1cccc2cnccc12)N1CCCNCC1` . Output %-inhibition of PIK3CA/PIK3R1: -7

The compound identified as COc1cc2nccc(Oc3ccc(NC(=O)C4(C(=O)Nc5ccc(F)cc5)CC4)cc3)c2cc1OC [cabozantinib] registered its %-inhibition of PIK3CA/PIK3R1 at 48
